Species: Rattus norvegicus
assay_explanation: DrugMatrix - Regimen: Daily Repeat
Assay type: toxicity, organism-based, Sprague-Dawley
Parameters: regimen Daily Repeat, gender Male, age 6-8 weeks
condition_label: in vivo, ip, 5 mg/kg, […], tissue Blood, route intraperitoneal, dose level High, time 14 day, vehicle 100 % SALINE
readout_kind: ABSOLUTE BASOPHIL (cells/µL)
Give bare numbers, in cells/µL.

Request: Entry `CARBOPLATIN` : reported ABSOLUTE BASOPHIL = ?
Response: 130

----------
Organism: Rattus norvegicus
assay_explanation: DrugMatrix - Regimen: Daily Repeat
Format: toxicity, organism-based, Sprague-Dawley
Design: regimen Daily Repeat, gender Male, age 6-8 weeks
condition_label: in vivo, po, 0 mg/kg, 120 h, tissue Blood, route oral GAVAGE, dose level Control, time 5 day, vehicle 100 % WATER
readout_kind: LYMPHOCYTE (%)
One number for each entry, in %.

Look over these answered cases.
{"compound": "CC(CCc1ccccc1)NCC(O)c1ccc(O)c(C(N)=O)c1 (centres undefined)", "units": "%", "data_value": 85.83}
{"compound": "CNCCC=C1c2ccccc2CCc2ccccc21", "units": "%", "data_value": 87.5}
{"compound": "NC(=O)c1ncn([C@@H]2O[C@H](CO)[C@@H](O)[C@H]2O)n1", "units": "%", "data_value": 92}

Below are some compounds; for each one, tell me its LYMPHOCYTE.
1. Nc1ccc(S(=O)(=O)Nc2ccnn2-c2ccccc2)cc1
2. NCC1(CC(=O)O)CCCCC1
3. CC1COc2c(N3CCN(C)CC3)c(F)cc3c(=O)c(C(=O)O)cn1c23 (centres undefined)

Response:
89.5
90
90.67

Field: LYMPHOCYTE. Fill in for each record below.
1. Fc1ccc([C@@H]2CCNC[C@H]2COc2ccc3c(c2)OCO3)cc1
2. COc1ccc(C(CN(C)C)C2(O)CCCCC2)cc1 (centres undefined)

Response:
[90.33, 89.5]

----------
Species on record: Rattus norvegicus
assay_explanation: DrugMatrix - Regimen: Daily Repeat
Type: toxicity, organism-based, Sprague-Dawley
Design: regimen Daily Repeat, gender Male, age 6-8 weeks
condition_label: in vivo, iv, 0 mg/kg, 120 h, tissue Blood, dose level Control, time 5 day, vehicle 100 % SALINE
Record form. Attribute: BASOPHIL. Fill in for each entry.
Give bare numbers, in %.

Observe how each entry below is paired with its result.
{"chem_smiles": "CC1(C)S[C@@H]2[C@H](NC(=O)[C@H](NC(=O)N3CCNC3=O)c3ccccc3)C(=O)N2[C@H]1C(=O)O", "BASOPHIL, %": 0}
{"chem_smiles": "CC[C@@]1(O)C(=O)OCc2c1cc1n(c2=O)Cc2cc3ccccc3nc2-1", "BASOPHIL, %": 0}
{"chem_smiles": "NCC[C@H](O)C(=O)N[C@@H]1C[C@H](N)[C@@H](O[C@H]2O[C@H](CN)[C@@H](O)[C@H](O)[C@H]2O)[C@H](O)[C@H]1O[C@H]1O[C@H](CO)[C@@H](O)[C@H](N)[C@H]1O", "BASOPHIL, %": 0}

Would you kindly look at the next entry?
Request: // BASOPHIL lookup, key: `CN(N=O)C(=O)N[C@@H](C=O)[C@@H](O)[C@H](O)[C@H](O)CO`
Response: 0

----------
Organism: Rattus norvegicus
assay_explanation: DrugMatrix - Regimen: Daily Repeat
Type: toxicity, organism-based, Sprague-Dawley
Parameters: regimen Daily Repeat, gender Male, age 6-8 weeks
condition_label: in vivo, po, 0 mg/kg, 72 h, tissue Plasma, route oral GAVAGE, dose level Control, time 3 day, […]
Assign BLOOD UREA NITROGEN to each entry below.
Numbers only, in mg/dL.

{"compound": "CN(C)CCCC1(c2ccc(F)cc2)OCc2cc(C#N)ccc21 (stereo not given)", "units": "mg/dL", "BLOOD UREA NITROGEN": 12}

Go through the list and state BLOOD UREA NITROGEN for each entry.
1. CSc1ccc2c(c1)N(CCC1CCCCN1C)c1ccccc1S2 (stereo not given)
2. c1ccc2[nH]c(-c3cscn3)nc2c1
3. CC(C)(Oc1ccc(CCNC(=O)c2ccc(Cl)cc2)cc1)C(=O)O [BEZAFIBRATE]
4. CCCCCCCCCc1ccc(O)cc1

Response:
14.17
14
18
13.17
